System: Candida albicans
assay_procedure: Antifungal activity against fluconazole-resistant Candida albicans 632 assessed as inhibition of fungal growth by CLSI based microdilution method
Assay type: functional
outcome_measure: MIC (µg/mL)
The reply should contain only the number, in µg/mL.

# example entries with known answers
Exercise: Annotate the molecule CCCNC(=O)/C=C/c1ccc(COC(Cn2ccnc2)c2ccc(Cl)cc2Cl)cc1 (centres undefined) with its measured MIC.
Key: 2

Exercise: Annotate the molecule O=C(/C=C/c1ccc(COC(Cn2ccnc2)c2ccc(Cl)cc2Cl)cc1)Nc1cccc(Cl)c1 (centres undefined) with its measured MIC.
Key: 2

Exercise: Annotate the molecule O=C(/C=C/c1ccc(COC(Cn2ccnc2)c2ccc(Cl)cc2Cl)cc1)Nc1cccc(Br)c1 (centres undefined) with its measured MIC.
Key: 4

Others:
Exercise: Annotate the molecule Cc1ccccc1NC(=O)/C=C/c1ccc(COC(Cn2ccnc2)c2ccc(Cl)cc2Cl)cc1 (centres undefined) with its measured MIC.
Key: 2

Exercise: Annotate the molecule O=C(/C=C/c1ccc(COC(Cn2ccnc2)c2ccc(Cl)cc2Cl)cc1)NC1CC1 (centres undefined) with its measured MIC.
Key: 1

====

Tested on: Aspergillus fumigatus
assay_procedure: Antifungal activity against Aspergillus fumigatus CGMCC 3.7795 assessed as inhibition of fungal growth by CLSI protocol based microdilution method
Assay type: functional
In this section we review reported MIC values for a set of molecules.

# example entries with known answers
Exercise: Annotate the molecule O=C(/C=C/c1ccc(COC(Cn2ccnc2)c2ccc(Cl)cc2Cl)cc1)Nc1ccc(Br)cc1 (stereo not given) with its measured MIC.
Key: 16 µg/mL

Exercise: Annotate the molecule CNC(=O)/C=C/c1ccc(COC(Cn2ccnc2)c2ccc(Cl)cc2Cl)cc1 (stereo not given) with its measured MIC.
Key: 8 µg/mL

Exercise: Annotate the molecule CCCCNC(=O)/C=C/c1ccc(COC(Cn2ccnc2)c2ccc(Cl)cc2Cl)cc1 (stereo not given) with its measured MIC.
Key: 0.5 µg/mL

Others:
Exercise: Annotate the molecule Clc1ccc(COC(Cn2ccnc2)c2ccc(Cl)cc2Cl)c(Cl)c1 (stereo not given) [MICONAZOLE] with its measured MIC.
Key: 2 µg/mL

Exercise: Annotate the molecule NC(=O)/C=C/c1ccc(COC(Cn2ccnc2)c2ccc(Cl)cc2Cl)cc1 (stereo not given) with its measured MIC.
Key: 64 µg/mL

====

Test system: Candida albicans
assay_procedure: Antifungal activity against fluconazole-resistant Candida albicans 17 assessed as inhibition of fungal growth by CLSI based microdilution method
Assay type: functional
outcome_measure: MIC (mg/L)
The reply should contain only the number, in mg/L.

# example entries with known answers
Exercise: Annotate the molecule O=C(/C=C/c1ccc(COC(Cn2ccnc2)c2ccc(Cl)cc2Cl)cc1)Nc1ccc(Cl)cc1Cl (stereo not given) with its measured MIC.
Key: 0.25

Exercise: Annotate the molecule O=C(/C=C/c1ccc(COC(Cn2ccnc2)c2ccc(Cl)cc2Cl)cc1)Nc1cccc(Cl)c1 (stereo not given) with its measured MIC.
Key: 128

Exercise: Annotate the molecule CCNC(=O)/C=C/c1ccc(COC(Cn2ccnc2)c2ccc(Cl)cc2Cl)cc1 (stereo not given) with its measured MIC.
Key: 128

Exercise: Annotate the molecule O=C(/C=C/c1ccc(COC(Cn2ccnc2)c2ccc(Cl)cc2Cl)cc1)Nc1ccc(Cl)cc1 (stereo not given) with its measured MIC.
Key: 128

Exercise: Annotate the molecule NC(=O)/C=C/c1ccc(COC(Cn2ccnc2)c2ccc(Cl)cc2Cl)cc1 (stereo not given) with its measured MIC.
Key: 128

Exercise: Annotate the molecule COc1ccc(NC(=O)/C=C/c2ccc(COC(Cn3ccnc3)c3ccc(Cl)cc3Cl)cc2)cc1 (stereo not given) with its measured MIC.
Key: 2

Exercise: Annotate the molecule O=c1ccc2ccc(COC(Cn3ccnc3)c3ccc(Cl)cc3Cl)cc2o1 (stereo not given) with its measured MIC.
Key: 4

Exercise: Annotate the molecule O=C(/C=C/c1ccc(COC(Cn2ccnc2)c2ccc(Cl)cc2Cl)cc1)Nc1ccccc1 (stereo not given) with its measured MIC.
Key: 128

Others:
Exercise: Annotate the molecule O=C(/C=C/c1ccc(COC(Cn2ccnc2)c2ccc(Cl)cc2Cl)cc1)Nc1cccc(Br)c1 (stereo not given) with its measured MIC.
Key: 128
